Task for the reader: assign each of the following molecules its reported inhibition at 1 µM.
biological target: Human TRPV3 (Homo sapiens); construct: expressed in transfected cells; host or cells: CHO cells (G-418 selection); assay: Screening for TRPV3 antagonist using the 45Calcium uptake assay (inhibition of 2-APB induced cellular uptake of radioactive calcium); type: cell-based; details: 1.0 μM test compound; human TRPV3 expressing CHO cells; 2-APB 500 μM; read-out: Percentage inhibition at 1.0 μM

Answered cases to consult:
smiles_repr=CCCCOc1c(/C=C/c2nc3sccn3c(=O)c2-c2ccc(C(F)(F)F)cc2)cccc1OC recorded_value=56.6%
smiles_repr=O=c1c(-c2ccc(OC(F)(F)F)cc2)c(/C=C/c2cccc(OC(F)F)c2OCC2CC2)nc2sccn12 recorded_value=81.4%
smiles_repr=N#Cc1ccc(-c2c(/C=C/c3cccnc3)nc3sccn3c2=O)cc1 recorded_value=15.4%
smiles_repr=COc1cccc(/C=C/c2nc3sccn3c(=O)c2-c2ccccc2)c1OCC1CC1 recorded_value=10.4%
smiles_repr=N#CCCCOc1cccc(/C=C/c2nc3sccn3c(=O)c2-c2ccc(OC(F)(F)F)cc2)c1OCC1CC1 recorded_value=15.4%
smiles_repr=O=c1c(-c2ccc(OC(F)(F)F)cc2)c(/C=C/c2cccc(OCC3CC3)c2OCC2CC2)nc2sccn12 recorded_value=16.3%

Provide inhibition at 1 µM values for the following items, in order.
1. COc1cc(/C=C/c2nc3sccn3c(=O)c2-c2ccc(C(F)(F)F)cc2)ccc1OCC1CC1
2. COc1cccc(/C=C/c2nc3sccn3c(=O)c2-c2ccc(C#N)cc2)c1OCC1CC1
3. COc1cccc(/C=C/c2nc3sccn3c(=O)c2-c2ccc(OC(F)F)cc2)c1OCC1CC1
4. COc1cccc(/C=C/c2nc3sc(Cl)cn3c(=O)c2-c2ccc(C#N)cc2)c1OCC(C)(C)C
5. COc1cccc(/C=C/c2nc3sc(Cl)cn3c(=O)c2-c2ccc(N(C)C)cc2)c1OCC(C)(C)C
6. COc1cccc(/C=C/c2nc3sccn3c(=O)c2-c2ccc(OC(F)(F)F)cc2)c1OCCC(C)C

**A:**
1. 28.6%
2. 59.3%
3. 80%
4. 69.1%
5. 57.9%
6. 81.9%

###

biological target: Human TRPV3 (Homo sapiens, UniProt Q8NET8); construct: expressed in transfected cells; host or cells: CHO cells (G-418 selection); assay: Screening for TRPV3 antagonist using the 45Calcium uptake assay (inhibition of 2-APB induced cellular uptake of radioactive calcium); assay type: cell-based; conditions: human TRPV3 expressing CHO cells; 2-APB 500 μM; class symbols
Sequence (Q8NET8 whole entry): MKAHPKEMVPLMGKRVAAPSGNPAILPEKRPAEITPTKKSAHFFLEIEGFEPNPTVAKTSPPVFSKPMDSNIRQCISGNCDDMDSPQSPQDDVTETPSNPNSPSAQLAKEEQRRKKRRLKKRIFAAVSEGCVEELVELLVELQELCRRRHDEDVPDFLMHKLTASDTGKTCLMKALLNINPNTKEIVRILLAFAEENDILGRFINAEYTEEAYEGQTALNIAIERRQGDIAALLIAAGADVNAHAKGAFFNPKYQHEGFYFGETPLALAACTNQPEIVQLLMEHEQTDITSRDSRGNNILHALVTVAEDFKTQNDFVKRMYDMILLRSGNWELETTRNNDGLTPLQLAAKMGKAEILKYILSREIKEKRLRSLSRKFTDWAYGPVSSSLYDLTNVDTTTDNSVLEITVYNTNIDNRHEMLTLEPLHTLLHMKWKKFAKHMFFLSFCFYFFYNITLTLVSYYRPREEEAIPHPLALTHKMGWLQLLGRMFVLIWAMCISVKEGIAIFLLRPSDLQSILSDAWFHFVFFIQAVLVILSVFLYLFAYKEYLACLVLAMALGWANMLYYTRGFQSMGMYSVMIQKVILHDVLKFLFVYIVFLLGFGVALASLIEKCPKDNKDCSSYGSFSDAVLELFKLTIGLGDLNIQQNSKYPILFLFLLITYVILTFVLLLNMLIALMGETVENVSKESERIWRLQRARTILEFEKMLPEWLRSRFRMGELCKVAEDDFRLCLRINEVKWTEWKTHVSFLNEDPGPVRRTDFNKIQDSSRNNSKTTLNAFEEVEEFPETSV
Task for the reader: assign each of the following molecules its reported IC50.

Answered cases to consult:
molecule="O=c1c(-c2ccc(OC(F)(F)F)cc2)c(/C=C/c2cccc(OC(F)F)c2OCC2CC2)nc2sccn12 [Example 63]" recorded_value="< 250 nM"
molecule="COc1cccc(/C=C/c2nc3sccn3c(=O)c2-c2ccc(N(C)C)cc2)c1OCC(C)C [Example 41]" recorded_value="250 to 500 nM"
molecule="CCCCOc1c(/C=C/c2nc3sccn3c(=O)c2-c2ccc(C#N)cc2)cccc1OC [Example 9]" recorded_value="500 to 1000 nM"
molecule="CCOCCOc1c(/C=C/c2nc3sc4ccccc4n3c(=O)c2-c2ccc(C#N)cc2)cccc1OC [Example 85]" recorded_value="< 250 nM"
molecule="COc1cccc(/C=C/c2nc3sccn3c(=O)c2-c2ccc(C#N)cc2)c1OCC(C)C [Example 12]" recorded_value="< 250 nM"
molecule="COc1cccc(/C=C/c2nc3sc(Cl)cn3c(=O)c2-c2ccc(N(C)C)cc2)c1OCC(C)C [Example 81]" recorded_value="250 to 500 nM"
molecule="COc1cccc(/C=C/c2nc3sccn3c(=O)c2-c2ccc(OC(F)(F)F)cc2)c1OCC1CCC1 [Example 67]" recorded_value="< 250 nM"
molecule="CCOCCOc1c(/C=C/c2nc3sccn3c(=O)c2-c2ccc(C#N)cc2)cccc1OC [Example 15]" recorded_value="500 to 1000 nM"

Provide IC50 values for the following items, in order.
1. COCCOc1c(/C=C/c2nc3sc4ccccc4n3c(=O)c2-c2ccc(C#N)cc2)cccc1OC [Example 84]
2. COc1cccc(/C=C/c2nc3sccn3c(=O)c2-c2ccc(OC(F)(F)F)cc2)c1OCC(C)(C)C [Example 52]
3. COc1cccc(/C=C/c2nc3sccn3c(=O)c2-c2ccc(OC(F)F)cc2)c1OCC1CC1 [Example 48]
4. COc1cccc(/C=C/c2nc3sccn3c(=O)c2-c2ccc(OC(F)(F)F)cc2)c1OCC(C)C [Example 51]
5. COc1cccc(/C=C/c2nc3sccn3c(=O)c2-c2ccc(C#N)cc2)c1OCC1CCCCC1 [Example 19]

**A:**
1: 250 to 500 nM; 2: < 250 nM; 3: < 250 nM; 4: < 250 nM; 5: 250 to 500 nM

Provide IC50 values for the following items, in order.
1. COc1cccc(/C=C/c2nc3sccn3c(=O)c2-c2ccc(C(F)(F)F)cc2)c1OCC(C)(C)C [Example 29]
2. COc1cccc(/C=C/c2nc3sccn3c(=O)c2-c2ccc(OC(F)(F)F)cc2)c1OCC1CC1 [Example 58]
3. CCCOc1c(/C=C/c2nc3sccn3c(=O)c2-c2ccc(OC(F)(F)F)cc2)cccc1OC [Example 54]

**A:**
["< 250 nM", "< 250 nM", "< 250 nM"]

Provide IC50 values for the following items, in order.
1. COc1cccc(/C=C/c2nc3sccn3c(=O)c2-c2ccc(OC(F)(F)F)cc2)c1OC1CCCCC1 [Example 72]
2. CCCCCOc1c(/C=C/c2nc3sccn3c(=O)c2-c2ccc(C#N)cc2)cccc1OC [Example 10]
3. COc1cccc(/C=C/c2nc3sc(C)cn3c(=O)c2-c2ccc(OC(F)(F)F)cc2)c1OCC1CC1 [Example 75]

**A:**
["250 to 500 nM", "250 to 500 nM", "< 250 nM"]
